Reported growth values are given for each entry in this list.
System: RXF 393 renal
Assay: NCI-60 one-dose screen, 48 h (100 = growth as untreated, 0 = no growth, -100 = all killed)
Settings: 10 µM unless noted
This is part of a sample that, as a whole, favours compounds with a hit. Of some 83,000 tested, about 20% had one in any assay.
Kindly answer with a numeric value in %, unit omitted.

# annotated cases, reported growth shown
Item `CC(C)CCC[C@@H](C)[C@H]1CC[C@H]2[C@@H]3CC=C4C[C@@H](C(C(=O)O)C(=O)O)CC[C@]4(C)[C@H]3CC[C@]12C` has what recorded growth?
-49.8

Also check `CC1(C)CC[C@]2(c3nnc(-c4ccncc4)o3)CC[C@H]3C(=CC[C@H]4[C@@]3(C)CC[C@H]3C(C)(C)C(=O)CC[C@]43C)[C@@H]2C1`
79

Same question, `Brc1c2c(c(Br)c3ccccc13)CCCC2` this time
101

Please answer likewise for CNc1nc(S(=O)c2ccc(C#N)cc2)nc2ccccc12 (configuration not stated)
62.9

Also `Cc1ccc(Cc2cnc(NC(=O)c3cc(Br)cs3)s2)cc1` , if possible.
71.4

Further cases:
Could you share which growth value was measured for `CCN(CC)CCCN1C(=O)c2c(c(C)c3c(oc4cc(O)ccc43)c2C)C1=O` ?
75.7

Now this one: `CN(C)CC(=O)Nc1ccc2ncnc(Nc3ccc(Oc4cccc(C(F)(F)F)c4)c(Cl)c3)c2c1`
50.6

Field entry: O=C(CCCCC1CCSS1)Nc1ncnc2n[nH]c(-c3ccc(Oc4ccccc4)cc3)c12 (configuration not stated)
113

Now consider `O=C(OCc1ccc2c(Cl)cc(Cl)c(O)c2n1)n1cncn1` .
45.9

# iterate: `O=C(Nc1nn(-c2ccc(Cl)cc2Cl)nc1-c1ccccc1)c1ccccc1`
111

Again, but for `Cn1c(-c2ccc(Br)cc2)c(O)c(=O)c2c(F)cccc21`
66.1

Ok, now `Oc1ccc(CN2CCC(N3CCCCC3)CC2)c2cccnc12`
29.6

---

Tested on: TK-10 renal
Experiment: NCI-60 one-dose screen, 48 h (100 = growth as untreated, 0 = no growth, -100 = all killed)
Settings: 10 µM unless noted
Experimental: Growth inhibition of the TK-10 human tumor cell line is measured as a screen for anti-cancer activity. Cells are grown in 96 well plates and exposed to the test compound for 48 hours. Compounds are tested at a single concentration, which is 10^-5 M for most compounds. The reported endpoint is percent growth (GI% or GIPRCNT), where numbers from 0 - 100% represent growth inhibition, and numbers from -100% - 0 represent cell death. For example, a value of 40 represents 60% growth inhibition. […]
About 83,000 compounds went through this panel and 20% of them were active in at least one assay; those are over-represented in the sample as a whole.
observed-property: growth (%)
Report as a plain number; the unit % is understood.

Examples with answers:
What value of measured growth is listed for `O=S(=O)(NCCNc1nccc(-c2c(-c3cccc(F)c3)nc3occn23)n1)c1ccc(Br)cc1` ?
103

# repeat for `O=C(Cn1c(=O)sc2nc3ccccc3nc21)Nc1ncc(Cc2cccc(Cl)c2Cl)s1`
95.5

What do we get for `COc1ccc(-c2nn(-c3ccccc3)cc2/C=C2/SC(=S)N(C)C2=O)cc1` ?
27.7

Try this molecule next: `CC(=O)Cc1nsc(NC(=O)c2cc(-c3cc(Cl)cc(Cl)c3)oc2C)n1`
130

// next record `CCN1CCN(Cc2cn(CC(=O)Nc3ccc4c(ccn4Cc4ccccc4)c3)nn2)CC1`
99.2

Further cases:
So what does the record say about growth for COc1cc(N2C(=O)[C@H](O)C2c2ccc(SC)cc2)cc(OC)c1OC (some centres undefined) ?
40.7

Request: `CC1(C)CC[C@]2(c3nnc(-c4ccncc4)o3)CC[C@H]3C(=CC[C@H]4[C@@]3(C)CC[C@H]3C(C)(C)C(=O)CC[C@]43C)[C@@H]2C1`
97.5

What do you get for `CCCCCCCCn1ccc2cc(NC(=O)CN3CCN(c4nc(C)cc(Cl)n4)CC3)ccc21` ?
108

Next entry: `CCOP(=O)(OCC)c1nc(-c2ccccc2)oc1NCc1cccnc1`
101

Another molecule to check: `c1cnc2[nH]cc(-c3csc(-c4cn(CCCN5CCOCC5)c5ccccc45)n3)c2c1`
69.6
